# credit: ChEMBL document CHEMBL3988442

tested on: Plasmodium falciparum; assay: Calibr Malaria Delayed Death Assay SOP; type: functional, organism-based; design: scale not given: in the data most compounds retested in dose-response had high values; conditions: concentration 4.99e-06 (unit not given; other assays of the set use mol/L)
The campaign covered roughly 38,000 compounds. About 1,200 (3.2%) showed an effect of 50% or more. The median lay at about -58%. The sample holds strong results, similar compounds and a random draw of the others, so the mix is not that of the screen.
Mark false for Percent Effect values under -20%, and true for everything at or above.

The following compounds have reported results that may help.
1) CN(Cc1ccccc1)CC1CC2(CO1)CN(Cc1cnn(C)c1)C2 (centres undefined)	true
2) CC(=O)Nc1ccc(CNCc2cccnc2N(C)C)cc1	false
3) CC1CCCN(C(=O)Nc2cccc(CN3CCOC3=O)c2)C1 (centres undefined)	false

# input Record CCc1cc(C(C)Nc2nc(-c3cccnc3)nc3c2CNC3)on1 (centres undefined) ; criterion: Percent Effect no lower than -20%. Met?
# output false

# input Record "Cc1ccccc1N1CCN(c2nc(N(C)C)nc3c2CCNC3)CC1" ; criterion: Percent Effect no lower than -20%. Met?
# output true
